Across several publications, the following pIC50 results were reported for Serine/threonine-protein kinase 17A (Homo sapiens, UniProt Q9UEE5).
Target: Serine/threonine-protein kinase 17A (Homo sapiens, UniProt Q9UEE5)
Sequence (Q9UEE5 whole entry): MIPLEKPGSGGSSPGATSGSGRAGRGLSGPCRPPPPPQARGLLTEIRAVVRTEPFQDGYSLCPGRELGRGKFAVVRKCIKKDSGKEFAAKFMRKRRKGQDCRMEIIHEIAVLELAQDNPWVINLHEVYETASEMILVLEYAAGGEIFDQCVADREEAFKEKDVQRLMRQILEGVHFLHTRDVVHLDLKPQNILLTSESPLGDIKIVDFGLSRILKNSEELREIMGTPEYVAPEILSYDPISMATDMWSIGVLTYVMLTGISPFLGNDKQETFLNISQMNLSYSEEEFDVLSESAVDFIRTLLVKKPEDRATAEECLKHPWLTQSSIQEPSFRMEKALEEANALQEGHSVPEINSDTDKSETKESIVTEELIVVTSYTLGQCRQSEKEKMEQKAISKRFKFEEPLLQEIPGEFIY
pIC50: −log10 of the molar value.
Threshold rule: pIC50 greater than or equal to 7 is True; below that, False.

• CNC(=O)c1cc(Oc2ccc(NC(=O)Nc3cc(C(C)(C)C)nn3-c3ccc4ncccc4c3)c(F)c2)ccn1 = False
• CC(C)(C)CC(=O)Nc1ccc2c(c1)/C(=C1/Nc3ccccc3/C1=N\O)C(=O)N2 = True
• O=C1Nc2ccc(NC(=O)C3CC3)cc2/C1=C1/Nc2ccccc2/C1=N\O = True
• O=C1Nc2ccc(NC(=O)c3cc([N+](=O)[O-])cc([N+](=O)[O-])c3)cc2/C1=C1/Nc2ccccc2/C1=N\O = True
• COc1ccc2c(c1)C(=O)/C(=C/c1ccc(O)c(O)c1)O2 = False
• O=C1Nc2ccc(NC(=O)c3ccc(F)cc3)cc2/C1=C1/Nc2ccccc2/C1=N\O = False
• CCCC(=O)Nc1ccc2c(c1)/C(=C1/Nc3ccccc3/C1=N\O)C(=O)N2 = True
• O=C(/C=C/c1ccccc1)Nc1ccc2c(c1)/C(=C1/Nc3ccccc3/C1=N\O)C(=O)N2 = False
• O=C1Nc2ccc(NC(=O)c3ccc(Cl)cc3)cc2/C1=C1/Nc2ccccc2/C1=N\O = False
• CCOc1cc(/C=C2\Oc3ccc(OC)cc3C2=O)ccc1O = False
